- Assay System: Human IL-17A (Homo sapiens)
- Assay Info: Inhibition of human IL-17A protein-induced GROα/CXCL1 production in HT-29 cells
- Assay type: cell-based
- Set-up: purchased R&D 317-ILB; host or cells: added exogenously to HT-29 cells
- Measurement Parameters: 30 ng/mL human IL-17A protein, 48 h, GROα in supernatant by ELISA kit, read-out: Inhibitory IC50 of compounds on HT-29 cell GROα/CXCL1
Listed next: entries and their corresponding IC50.

Molecule	IC50
CCn1nccc1C(=O)N[C@H](C(=O)Nc1ccc2c(c1)CN(C)C(=O)Cc1n[nH]c(C)c1-2)C(C1CC1)C1CC1 [compound 23]	≤ 100 nM
CC(C)=C(F)C(=O)N[C@H](C(=O)Nc1cc2c(cn1)-c1c(n[nH]c1C)CCOC2)C(C1CC1)C1CC1 [compound 244]	≤ 100 nM
Cc1[nH]nc2c1-c1cc(F)c(NC(=O)[C@@H](NC(=O)c3ccnn3C(C)C)C(C3CC3)C3CC3)cc1CN(CC(C)(F)F)CC2 [compound 160]	≤ 100 nM
[2H]C([2H])([2H])C([2H])(n1nccc1C(=O)N[C@H](C(=O)Nc1cc2c(cn1)-c1c(n[nH]c1C)CCOC2)C(C1CC1)C1CC1)C([2H])([2H])[2H] [compound 54]	≤ 100 nM
Cc1[nH]nc2c1-c1cc(F)c(NC(=O)[C@@H](NC(=O)c3conc3C(C)C)C(C3CC3)C3CC3)cc1CN(CC(F)F)CC2 [compound 180]	≤ 100 nM

----------
Listed next: entries and their corresponding IC50.
- Assay System: Human IL-17A (Homo sapiens, UniProt Q16552)
- Sequence (Q16552 20-155 limits assumed): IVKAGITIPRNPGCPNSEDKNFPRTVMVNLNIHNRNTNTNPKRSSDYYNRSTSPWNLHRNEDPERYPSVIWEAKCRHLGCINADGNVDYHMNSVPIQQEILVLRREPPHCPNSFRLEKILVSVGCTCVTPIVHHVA
- Assay Info: IL-17A enzyme-linked immunosorbent assay (competitive ELISA, IL-17A/IL-17Ra receptor-ligand binding)
- Design: purchased Sino Biological Inc. 12047-H07B
- Measurement Parameters: human IL-17A coated plate, human IL-17Ra, read-out: IC50, inhibitory activity of compounds on human IL-17A
Property: IC50

Compound	Result
CCn1nccc1C(=O)N[C@H](C(=O)Nc1ccc2c(c1)CCOCc1n[nH]c(C)c1-2)C(C1CC1)C1CC1	50 to 150 nM
CCN1CCc2n[nH]c(C)c2-c2cc(F)c(NC(=O)[C@@H](NC(=O)c3ccnn3CC)C(C3CC3)C3CC3)cc2C1	≤ 50 nM
Cc1[nH]nc2c1-c1ccc(NC(=O)[C@@H](NC(=O)c3ccnn3C(C)C)C(C3CC3)C3CC3)cc1CN(C)C(=O)C2	≤ 50 nM
Cc1[nH]nc2c1-c1cc(F)c(NC(=O)[C@@H](NC(=O)c3ccnn3CCOC(C)C)C(C3CC3)C3CC3)cc1COCC2	≤ 50 nM
Cc1[nH]nc2c1-c1cnc(NC(=O)[C@@H](NC(=O)c3ccnn3C(C)C)C(C3CC3)C3CC3)cc1CN(C(C)C(F)(F)F)C(=O)C2 (mixture of isomers)	≤ 50 nM
Cc1[nH]nc2c1-c1cc(F)c(NC(=O)[C@@H](NC(=O)c3ccnn3CCC(F)F)C(C3CC3)C3CC3)cc1COCC2	≤ 50 nM
Cc1[nH]nc2c1-c1cnc(NC(=O)[C@@H](NC(=O)/C(F)=C\C(C)C)C(C3CC3)C3CC3)cc1COCC2	≤ 50 nM
Cc1[nH]nc2c1-c1cnc(NC(=O)[C@@H](NC(=O)c3ccnn3C(C)C)C(C3CC3)C3CC3)cc1CN(C(C)C)C(=O)C2	≤ 50 nM
Cc1[nH]nc2c1-c1cc(F)c(NC(=O)[C@@H](NC(=O)c3ccnn3C(C)C)C(C3CC3)C3CC3)cc1CN(CC#N)CC2	≤ 50 nM
CSCCn1nccc1C(=O)N[C@H](C(=O)Nc1cc2c(cc1F)-c1c(n[nH]c1C)CCOC2)C(C1CC1)C1CC1	≤ 50 nM
Cc1[nH]nc2c1-c1cc(F)c(NC(=O)[C@@H](NC(=O)c3ccnn3CC3(C#N)CC3)C(C3CC3)C3CC3)cc1COCC2	≤ 50 nM
Cc1[nH]nc2c1-c1cnc(NC(=O)[C@@H](NC(=O)c3ccnn3C(C)C3CC3)C(C3CC3)C3CC3)cc1COCC2 (single isomer, unassigned) [compound 188a]	≤ 50 nM
CCN1Cc2cc(NC(=O)[C@@H](NC(=O)c3ccnn3C(C)C)C(C3CC3)C3CC3)c(F)cc2-c2c(n[nH]c2C)CC1=O	≤ 50 nM
Cc1[nH]nc2c1-c1cc(F)c(NC(=O)[C@@H](NC(=O)c3conc3C(C)C)C(C3CC3)C3CC3)cc1CN(CC(F)F)C(=O)C2	≤ 50 nM
CCc1nocc1C(=O)N[C@H](C(=O)Nc1cc2c(cc1F)-c1c(n[nH]c1C)CCOC2)C(C1CC1)C1CC1	≤ 50 nM

----------
Listed next: entries and their corresponding IC50.
- Assay System: Human IL-17A (Homo sapiens)
- Assay Info: IL-17A enzyme-linked immunosorbent assay (competitive ELISA, IL-17A/IL-17Ra receptor-ligand binding)
- Parameters: purchased Sino Biological Inc. 12047-H07B
- Measurement Parameters: human IL-17A coated plate, human IL-17Ra, read-out: IC50, inhibitory activity of compounds on human IL-17A

Compound	Assay System	IC50
Cc1[nH]nc2c1-c1cc(F)c(NC(=O)[C@@H](NC(=O)c3ccnn3C(C)CF)C(C3CC3)C3CC3)cc1COCC2 (single isomer, unassigned) [compound 42b]	Human IL-17A (Homo sapiens)	≤ 50 nM
Cc1[nH]nc2c1-c1cc(F)c(NC(=O)[C@@H](NC(=O)c3ccc(C#N)n3C)C(C3CC3)C3CC3)cc1COCC2	Human IL-17A (Homo sapiens)	≤ 50 nM
Cc1[nH]nc2c1-c1cnc(NC(=O)[C@@H](NC(=O)c3conc3C(C)C)C(C3CC3)C3CC3)cc1CN(C1CC1)CC2	Human IL-17A (Homo sapiens)	≤ 50 nM
Cc1[nH]nc2c1-c1cnc(NC(=O)[C@@H](NC(=O)c3ccnn3C(C)C(F)F)C(C3CC3)C3CC3)cc1COCC2 (single isomer, unassigned) [compound 190a]	Human IL-17A (Homo sapiens)	≤ 50 nM
Cc1[nH]nc2c1-c1ccc(NC(=O)[C@@H](NC(=O)c3ccnn3[C@@H](C)CO)C(C3CC3)C3CC3)cc1COCC2	Human IL-17A (Homo sapiens)	≤ 50 nM
Cc1[nH]nc2c1-c1cnc(NC(=O)[C@@H](NC(=O)c3ccnn3C(C)C(F)F)C(C3CC3)C3CC3)cc1COCC2 (single isomer, unassigned) [compound 190b]	Human IL-17A (Homo sapiens)	50 to 150 nM
Cc1[nH]nc2c1-c1cnc(NC(=O)[C@@H](NC(=O)c3ccnn3C(C)C)C(C3CC3)C3CC3)c(F)c1COCC2	Human IL-17A (Homo sapiens)	≤ 50 nM
Cc1[nH]nc2c1-c1cc(F)c(NC(=O)[C@@H](NC(=O)c3ccnn3CC(C)(C)F)C(C3CC3)C3CC3)cc1COCC2	Human IL-17A (Homo sapiens)	50 to 150 nM
Cc1[nH]nc2c1-c1cc(F)c(NC(=O)[C@@H](NC(=O)c3ccnn3C(C)C3CC3)C(C3CC3)C3CC3)cc1COCC2 (single isomer, unassigned) [compound 41a]	Human IL-17A (Homo sapiens)	≤ 50 nM
Cc1[nH]nc2c1-c1cnc(NC(=O)[C@@H](NC(=O)c3ccnn3C(C)C)C(C3CC3)C3CC3)cc1CN(Cc1ccccc1)C(=O)C2	Human IL-17A (Homo sapiens)	≤ 50 nM
Cc1[nH]nc2c1-c1cc(F)c(NC(=O)[C@@H](NC(=O)c3conc3C3CC3)C(C3CC3)C3CC3)cc1COCC2	Human IL-17A (Homo sapiens)	≤ 50 nM
Cc1[nH]nc2c1-c1cc(F)c(NC(=O)[C@@H](NC(=O)c3ccnn3C(C)C)C(C3CC3)C3CC3)cc1CN(C1(C(F)(F)F)CC1)C(=O)C2	Human IL-17A (Homo sapiens)	≤ 50 nM
Cc1[nH]nc2c1-c1cc(F)c(NC(=O)[C@@H](NC(=O)c3ccnn3C(C)C)C(C3CC3)C3CC3)cc1CN(C1CCC1)CC2	Human IL-17A (Homo sapiens)	≤ 50 nM
Cc1[nH]nc2c1-c1ccc(NC(=O)[C@@H](NC(=O)c3ccnn3C(C)C)C(C3CC3)C3CC3)cc1CNC(=O)C2	Human IL-17A (Homo sapiens)	≤ 50 nM
CCn1nccc1C(=O)N[C@H](C(=O)Nc1ccc2c(c1)COCCc1n[nH]c(C)c1-2)C1CCCCC1	Human IL-17A (Homo sapiens)	50 to 150 nM
Cc1[nH]nc2c1-c1cc(F)c(NC(=O)[C@@H](NC(=O)c3ccnn3C(C)C)C(C3CC3)C3CC3)cc1CN(C1CC(F)(F)C1)CC2	Human IL-17A (Homo sapiens)	≤ 50 nM
C=C(F)C(=O)N[C@H](C(=O)Nc1cc2c(cn1)-c1c(n[nH]c1C)CCN(C1CC1)C2)C(C1CC1)C1CC1	Human IL-17A (Homo sapiens)	≤ 50 nM
Cc1[nH]nc2c1-c1cc(F)c(NC(=O)[C@@H](NC(=O)c3ccnn3C3CC3)C(C3CC3)C3CC3)cc1COCC2	Human IL-17A (Homo sapiens)	≤ 50 nM

Each recorded value in this set is attributed to patent US20260258050A1.
